The measurements presented in this section are drawn from patent US20230040279A1.

List of % (percent increase in the Mean LC50 required compared to F1) values.
Tested on: Green Peach Aphid (Myzus persicae, MYZUPE)
Test Name: Green Peach Aphid (GPA) foliar spray bioassay on cabbage seedlings
Assay type: in vivo
Condition Context: relative to F1
Report the figure in % without appending any unit label.

As a guide, the following entries are already answered.
# Compound, Unit Annotation, Readout Number
measured = [
    ("CS(=O)(=O)CC(=O)Nc1cn(-c2cccnc2)nc1Cl", "%", "−29"),
    ("CC(C)(C(=O)Nc1cn(-c2cccnc2)nc1Cl)S(C)(=O)=O", "%", 3000),
    ("CN(C(=O)CS(C)(=O)=O)c1cn(-c2cccnc2)nc1Cl", "%", 643),
]

Alright, here's another compound for you.
Recall the recorded % (percent increase in the Mean LC50 required compared to F1) for CC(C(=O)N(C)c1cn(-c2cccnc2)nc1Cl)S(C)(=O)=O (stereo not shown) with Green Peach Aphid (Myzus persicae, MYZUPE) and state it. 314
